Tested on: Aspergillus fumigatus
Assay: Antimicrobial activity against Aspergillus fumigatus ATCC 204305 by Alamar blue method
Format: functional, organism-based
Entries and their log10 IC50
Please keep in mind that the values are log10 of IC50 expressed in µg/mL.

Check out these entries, answers already filled in.
- mol: "N#Cc1ccc(CSc2cc3ccccc3[n+](CCCCCC3CCCCC3)c2)cc1.[I-]"
  log10 IC50: 0.93
- mol: "[I-].c1ccc2cc(Sc3cc4ccccc4[n+](CCCCCC4CCCCC4)c3)ccc2c1"
  log10 IC50: 0.08
- mol: "Fc1ccccc1CSc1cc2ccccc2[n+](CCCCCC2CCCCC2)c1.[I-]"
  log10 IC50: 0.81
- mol: "Brc1ccccc1CSc1cc2ccccc2[n+](CCCCCC2CCCCC2)c1.[I-]"
  log10 IC50: 0.98
- mol: "FC(F)(F)c1ccccc1CSc1cc2ccccc2[n+](CCCCCC2CCCCC2)c1.[I-]"
  log10 IC50: 0.57
- mol: "FC(F)(F)c1cccc(CSc2cc3ccccc3[n+](CCCCCC3CCCCC3)c2)c1.[I-]"
  log10 IC50: 0.28
- mol: "Cc1cccc(CSc2cc3ccccc3[n+](CCCCCC3CCCCC3)c2)c1.[I-]"
  log10 IC50: 0.76
- mol: "N#Cc1cccc(CSc2cc3ccccc3[n+](CCCCCC3CCCCC3)c2)c1.[I-]"
  log10 IC50: 0.93

Requested field: log10 IC50. Item: `[I-].c1ccc(CCSc2cc3ccccc3[n+](CCCCCC3CCCCC3)c2)cc1`
1.28

Requested field: log10 IC50. Item: `Cc1ccccc1CSc1cc2ccccc2[n+](CCCCCC2CCCCC2)c1.[I-]`
0.61

Requested field: log10 IC50. Item: `[I-].c1ccc(CSc2cc3ccccc3[n+](CCCCCC3CCCCC3)c2)cc1`
0.76

Requested field: log10 IC50. Item: `Clc1ccccc1CSc1cc2ccccc2[n+](CCCCCC2CCCCC2)c1.[I-]`
1.23

Requested field: log10 IC50. Item: `Clc1ccc(CSc2cc3ccccc3[n+](CCCCCC3CCCCC3)c2)cc1.[I-]`
-0.16

Requested field: log10 IC50. Item: `Cc1ccc(CSc2cc3ccccc3[n+](CCCCCC3CCCCC3)c2)cc1.[I-]`
0.65

Requested field: log10 IC50. Item: `Brc1ccc(CSc2cc3ccccc3[n+](CCCCCC3CCCCC3)c2)cc1.[I-]`
0.38

* * *

Test system: Nakaseomyces glabratus
Assay: Antimicrobial activity against Candida glabrata by Alamar blue method
Type: functional, organism-based
Entries and their IC50
Give the value, in units of µg/mL, as a plain number.

Check out these entries, answers already filled in.
- mol: "Brc1ccc(CSc2cc3ccccc3[n+](CCCCCC3CCCCC3)c2)cc1.[I-]"
  unit_name: "µg/mL"
  measured_value: 1.6
- mol: "FC(F)(F)c1cccc(CSc2cc3ccccc3[n+](CCCCCC3CCCCC3)c2)c1.[I-]"
  unit_name: "µg/mL"
  measured_value: 2.8
- mol: "Fc1cccc(CSc2cc3ccccc3[n+](CCCCCC3CCCCC3)c2)c1.[I-]"
  unit_name: "µg/mL"
  measured_value: 2.6
- mol: "FC(F)(F)c1ccc(CSc2cc3ccccc3[n+](CCCCCC3CCCCC3)c2)cc1.[I-]"
  unit_name: "µg/mL"
  measured_value: 2.7

Requested field: IC50. Item: `Cc1ccc(CSc2cc3ccccc3[n+](CCCCCC3CCCCC3)c2)cc1.[I-]`
3.1
